Attribute: MIC
# System: Bacillus anthracis
# assayMethodText: microbe, parasite or virus in culture
# Format: cell-based
# testParameters: 18 h

Reference set (2 entries):
1) CNC[C@@H]1CC[C@@H](N)[C@@H](O[C@H]2C[C@@H](O[C@H]3O[C@H](CO)[C@@H](O)[C@H](N)[C@H]3O)[C@H](NC(=O)C(O)CN)C[C@@H]2N)O1 (stereo partly drawn) [AHP-trideoxyMKMB] | < 0.2 µg/mL
2) NCC[C@H](O)C(=O)N[C@@H]1C[C@H](N)[C@@H](O[C@H]2O[C@H](CN)CC[C@H]2N)C[C@H]1O[C@H]1O[C@H](CO)[C@@H](O)[C@H](N)[C@H]1O [AHB-trideoxyKMB] | < 0.2 µg/mL

Now look at this entry.
Query: Identify the measured MIC of CNC[C@@H]1CC[C@@H](N)[C@@H](O[C@H]2C[C@@H](O[C@H]3O[C@H](CO)[C@@H](O)[C@H](N)[C@H]3O)[C@H](NC(=O)[C@@H](O)CCN)C[C@@H]2N)O1 [AHB-trideoxyMKMB] for Bacillus anthracis.
Result: < 0.2 µg/mL

----------
# System: Providencia 2991
# MIC listing for each entry below
I only need the number, in µg/mL, no unit after it.

// worked examples, MIC included
1. C[C@H]1O[C@H](O[C@@H]2C[C@H](O[C@H]3O[C@H](CN)CC[C@H]3N)[C@@H](N)C[C@H]2NC(=O)[C@@H](O)CCN)[C@H](O)[C@@H](N)[C@@H]1O [AHB-tetradeoxyKMB] | 25
2. CNC[C@@H]1CC[C@@H](N)[C@@H](O[C@H]2C[C@@H](O[C@H]3O[C@H](CO)[C@@H](O)[C@H](N)[C@H]3O)[C@H](NC(=O)C(O)CN)C[C@@H]2N)O1 (stereo partly drawn) [AHP-trideoxyMKMB] | 50
3. CNC[C@@H]1CC[C@@H](N)[C@@H](O[C@H]2C[C@@H](O[C@H]3O[C@H](CO)[C@@H](O)[C@H](N)[C@H]3O)[C@H](NC(=O)[C@@H](O)CCN)C[C@@H]2N)O1 [AHB-trideoxyMKMB] | 12.5

Let us examine a further case.
Query: # query: MIC of entry NCC(O)C(=O)N[C@@H]1C[C@H](N)[C@@H](O[C@H]2O[C@H](CN)CC[C@H]2N)C[C@H]1O[C@H]1O[C@H](CO)[C@@H](O)[C@H](N)[C@H]1O (stereo partly drawn) [AHP-trideoxyKMB]
Result: 25
